Test system: A431
Experiment: whole-cell filipin (free cholesterol) integrated intensity, Z-score; higher = more cholesterol staining
Conditions: compound concentration in added solution (µM; 5 µl added to 20 µl cells): 10; 18 h
Structures can show the parent of a compound that is named as a salt.
Exercise: state measured whole-cell filipin (z-score) for each of the compounds provided.
One number for each entry.

Reference set (5 entries):
{"columns": ["compound", "numeric-value"],
 "data": [
  ["NCCC[C@H](N)CC(=O)N[C@H]1CNC(=O)[C@H]([C@H]2C[C@H](O)NC(N)=N2)NC(=O)/C(=C/NC(N)=O)NC(=O)[C@H](CO)NC(=O)[C@H](CO)NC1=O [Viomycin sulfate]", -0.305],
  ["COC(=O)[C@H]1[C@H]2C[C@@H]3c4[nH]c5cc(OC)ccc5c4CCN3C[C@H]2C[C@@H](OC(=O)c2cc(OC)c(OC)c(OC)c2)[C@@H]1OC [Reserpine]", 2.19],
  ["CCCNC(=O)NS(=O)(=O)c1ccc(Cl)cc1 [Chlorpropamide]", -0.845],
  ["CC(=O)O[C@]1(C(C)=O)CC[C@H]2[C@@H]3C=C(Cl)C4=CC(=O)[C@@H]5C[C@@H]5[C@]4(C)[C@H]3CC[C@@]21C [Cyproterone acetate]", 0.568],
  ["CCCN[C@H]1CCc2nc(N)sc2C1 [Pramipexole]", 0.197]
]}

Parameters: items (list). Returns: whole-cell filipin (z-score) for each item.
1. OC(CCN1CCCC1)(c1ccccc1)C1CCCCC1 (configuration not stated) [Procyclidine hydrochloride]
2. Clc1ccc(CO/N=C(\Cn2ccnc2)c2ccc(Cl)cc2Cl)c(Cl)c1 [Oxiconazole Nitrate]

1: 0.506; 2: 1.4

###

Tested on: A431
Assay: filipin (cholesterol) integrated intensity within LBPA endosomes, Z-score; higher = more cholesterol in LBPA endosomes
Settings: compound concentration in added solution (µM; 5 µl added to 20 µl cells): 10; 18 h
Where a name gives a salt, the structure may show the parent alone.
Please respond with reported filipin (z-score) for every item in the list.
Answers are plain numbers.

Dear colleague, could you please provide filipin (z-score) for the compounds listed below?
1. O=c1cc(-c2ccc(O)c(O)c2)oc2cc(O)cc(O)c12 [Luteolin]
2. NC[C@H]1CC[C@H](C(=O)O)CC1 [Tranexamic acid]
3. CN(C)CCCC1(c2ccc(F)cc2)OCc2cc(C#N)ccc21 (stereo not given) [Citalopram Hydrobromide]
4. CCN(CC)CCOC(=O)C(c1ccccc1)c1ccccc1 [Adiphenine hydrochloride]

1. -0.468
2. -0.524
3. -0.352
4. -0.574

Fill blank: measured filipin (z-score) of the compound CNCCCC12CCC(c3ccccc31)c1ccccc12 [Maprotiline hydrochloride] is ____. 2.92

###

System: HeLa MZ
Assay: LBPA endosome anti-LBPA integrated intensity (sum per cell), Z-score; higher = more LBPA staining
Conditions: compound concentration in added solution (µM; 5 µl added to 20 µl cells): 10; 18 h
property-name: LBPA endosome anti-LBPA integrated intensity (z-score)
Numbers only.

{"columns": ["molecule", "numeric-value"],
 "data": [
  ["O=C(O)CCNC(=O)c1ccc(/N=N/c2ccc(O)c(C(=O)O)c2)cc1 [Balsalazide Sodium]", -0.755],
  ["O=C(CCNNC(=O)c1ccncc1)NCc1ccccc1 [Nialamide]", 0.29],
  ["CCC(Cc1c(I)cc(I)c(N)c1I)C(=O)O (stereo not given)", -0.571],
  ["CCc1oc2ccccc2c1C(=O)c1cc(Br)c(O)c(Br)c1", -0.283]
]}

# evaluate next
Report LBPA endosome anti-LBPA integrated intensity (z-score) for Nc1cc(-c2ccncc2)c[nH]c1=O please. -0.737
